Below are IC50 values for Arginase-1 (Homo sapiens, UniProt P05089) collected from several publications.

Solved cases below.
1) C[C@]1(CCCB(O)O)[C@@H](C(=O)O)NC[C@@H]1O
17.7 nM
2) N[C@H](C(=O)N[C@H]1CN[C@H](C(=O)O)[C@@H]1CCCB(O)O)C1Cc2ccccc2C1
2 nM

Return reported IC50 values for all items listed beneath this line.
1. O=C(O)[C@]1(CCN2CCCCC2)CC(CCB(O)O)CN1 (stereo partly drawn)
2. NC(CCCCB(O)O)(C(=O)O)[C@H]1C[C@@H](NC[C@@H]2Cc3ccccc3CN2)C1 (stereo partly drawn)
3. N[C@@]1(C(=O)O)CN(CCNc2ccc(-c3ccccc3)cc2)C[C@@H]1CCCB(O)O
4. CNC(CCCCB(O)O)(CCN1Cc2ccccc2C1)C(=O)O (stereo not drawn)

Result:
1. 5370 nM
2. 26 to 100 nM
3. 0.1 to 250 nM
4. 101 to 500 nM

Would you mind giving IC50 for every molecule in the list below?
1. CN(C)[C@H]1C[C@H](CCCB(O)O)[C@](N)(C(=O)O)C1 (racemic)
2. CCN(CC)CCN1C[C@H](CCCB(O)O)[C@](N)(C(=O)O)C1
3. CCN[C@H]1CN[C@H](C(=O)O)[C@@H]1CCCB(O)O

Result:
0.1 to 250 nM
0.1 to 250 nM
84.5 nM

###

Reported pIC50 on Arginase-1 (Homo sapiens, UniProt P05089) for assorted compounds, compiled from publications.
pIC50: −log10 of the molar value.

Sample records with pIC50:
1. CC(C)[C@@H](N)C(=O)N[C@H]1CN[C@H](C(=O)O)[C@@H]1CCCB(O)O
7.45
2. CN(C)C[C@]1(C(=O)O)NCC[C@H]1CCCB(O)O
< 5.00
3. CC(C)(C)c1ccc(CN[C@H]2C[C@@H](C(N)(CCCCB(O)O)C(=O)O)C2)cc1 (some centres unmarked)
7.00 to 7.59

Need pIC50 for each of these compounds.
1. NC(CCCCB(O)O)(C(=O)O)[C@H]1C[C@@H](NCc2ccc(-c3ccc(Cl)c(Cl)c3)cc2)C1 (some centres unmarked)
2. N[C@@]1(C(=O)O)CN(CC2CCCN2)C[C@@H]1CCCB(O)O (some centres unmarked)
3. O=C(O)C[C@@]1(CCCB(O)O)[C@H](O)CN[C@@H]1C(=O)O
4. CC1(C)[C@H]2C[C@@H]3OB(CCC[C@@H]4CCN[C@@H]4C(=O)O)O[C@]3(C)[C@@H]1C2
5. O=C(O)[C@@]1(CCO)NCC[C@H]1CCCB(O)O

Result:
1: 7.60 to 10.00; 2: 6.60 to 10.00; 3: 5.54; 4: 7.52; 5: 5.83

###

Consider the following IC50 data for Arginase-1 (Homo sapiens), collected from several reports.

1) OCC1NCCC1CCCB(O)O (centres unmarked)
3.81 µM
2) N[C@@]1(C(=O)O)CN(Cc2ccnc3ccccc23)C[C@@H]1CCCB(O)O
0.251 to 1 µM
3) NC(CCCCB(O)O)(CCCN1CCCC1)C(=O)O (centres unmarked)
0.101 to 0.5 µM
4) Nc1ccccc1S(=O)(=O)N1C[C@H](CCCB(O)O)[C@](N)(C(=O)O)C1
0.251 to 1 µM

# batch size: 4; output IC50 per entry
1. NC(CCCCB(O)O)(C(=O)O)[C@H]1C[C@H](N(Cc2ccccc2)Cc2ccccc2)C1 (relative stereo)
2. NC(CCCCB(O)O)(C(=O)O)[C@H]1C[C@@H](NCc2ccc(F)c3ccccc23)C1 (some centres unmarked)
3. O=C(O)[C@H]1NCCC[C@@H]1CCCB(O)O (single isomer, unassigned)
4. NC(CCCCB(O)O)(C(=O)O)[C@H]1C[C@@H](NCc2cccc(-c3ccccc3)c2F)C1 (mixture of isomers)

Result:
> 1.5 µM
0.0001 to 0.025 µM
22.8 µM
0.026 to 0.1 µM
